EXPERIMENTAL_DETAILS: activity coefficient (dimensionless); of the first substance listed, at infinite dilution; xn = mol fraction of the nth substance listed
MEASUREMENT_CONTEXT: 343.15 K; Liquid; Chromatography; x1 = 0
# note: exactly 1 is not below, so it is not met; use met for activity coefficient strictly under it

-- ask is_below(activity coefficient, 1) for CC1CCCC1 [methylcyclopentane] + CCCOC[n+]1ccn(Cc2ccccc2)c1.O=S(=O)([N-]S(=O)(=O)C(F)(F)F)C(F)(F)F ?
-- reply not met

-- ask How about this compound: CCC[N+](=O)[O-] [1-nitropropane] + CCCOC[n+]1ccn(C)c1.O=S(=O)([N-]S(=O)(=O)C(F)(F)F)C(F)(F)F
-- reply met

-- ask How about this compound: C#CCCCC [1-hexyne] + Cn1cc[n+](COCCCOC[n+]2ccn(C)c2)c1.O=S(=O)([N-]S(=O)(=O)C(F)(F)F)C(F)(F)F.O=S(=O)([N-]S(=O)(=O)C(F)(F)F)C(F)(F)F
-- reply not met

-- ask How about this compound: C1COCCO1 [1,4-dioxane] + CCCOC[n+]1ccn(C)c1.F[B-](F)(F)F
-- reply not met

-- ask How about this compound: CCCCCCCCC [nonane] + CCCOC[n+]1ccn(C)c1.O=S(=O)([N-]S(=O)(=O)C(F)(F)F)C(F)(F)F
-- reply not met

-- ask How about this compound: C[N+](=O)[O-] [nitromethane] + CCCCCCCCn1cc[n+](COCCCOC[n+]2ccn(CCCCCCCC)c2C)c1C.N#C[N-]C#N.N#C[N-]C#N
-- reply met

====

EXPERIMENTAL_DETAILS: activity coefficient (dimensionless); of the first substance listed, at infinite dilution; xn = mol fraction of the nth substance listed
MEASUREMENT_CONTEXT: 323.15 K; Liquid; Chromatography; x1 = 0
READOUT_TYPE: activity coefficient
Lab note: jot down the number only; don't add units.

-- ask Can you look up the measured activity coefficient of CCCCCCCCCCCC [dodecane] + CCCCCCCCn1cc[n+](COCCCOC[n+]2ccn(CCCCCCCC)c2C)c1C.N#C[N-]C#N.N#C[N-]C#N for me?
-- reply 28.7

-- ask How about this compound: CCC[N+](=O)[O-] [1-nitropropane] + CN(C)c1cc[n+](COCCCOC[n+]2ccc(N(C)C)cc2)cc1.O=S(=O)([N-]S(=O)(=O)C(F)(F)F)C(F)(F)F.O=S(=O)([N-]S(=O)(=O)C(F)(F)F)C(F)(F)F
-- reply 0.57

-- ask How about this compound: C#CCCCC [1-hexyne] + CCCOC[n+]1ccn(Cc2ccccc2)c1.N#C[N-]C#N
-- reply 4.41

-- ask How about this compound: Cc1cccc(C)c1 [1,3-dimethylbenzene] + CCCOC[n+]1ccn(C)c1.O=S(=O)([N-]S(=O)(=O)C(F)(F)F)C(F)(F)F
-- reply 2.59

-- ask How about this compound: CCCCCCCCCCC [undecane] + CCCCCCCCn1cc[n+](COCCCOC[n+]2ccn(CCCCCCCC)c2C)c1C.N#C[N-]C#N.N#C[N-]C#N
-- reply 24.4

-- ask How about this compound: CC(C)CO [2-methyl-1-propanol] + CCCCCCCCn1cc[n+](COCCCOC[n+]2ccn(CCCCCCCC)c2C)c1C.O=S(=O)([N-]S(=O)(=O)C(F)(F)F)C(F)(F)F.O=S(=O)([N-]S(=O)(=O)C(F)(F)F)C(F)(F)F
-- reply 0.8
